# measured-target: human TGR5 (h-TGR5) (Homo sapiens, UniProt Q8TDU6)
# Construct: expressed in transfected cells
# method-summary: TGR5/CRE-Luciferiase Assay (HEK 293 hTGR5/CRE-Luc cells)
# Assay type: cell-based
# condition-summary: h-TGR5 CRE-Luc EC50, Table 1; read-out: CRE-Luc (EC50)
value-type: EC50

The examples below pair each entry with its known result.
CC(C)(c1ccc(Cl)c(Cl)c1)c1cnc(SCc2ccc(F)c(C(=O)O)c2)n1-c1ccc(F)cc1	100 to 1000 nM
CC(C)(c1ccc(Cl)c(Cl)c1)c1cnc(COc2ccc(Cl)cn2)n1-c1ccc(F)cc1	100 to 1000 nM
CC(C)(c1ccc(Cl)c(Cl)c1)c1cnc(C(F)CC2CCN(S(C)(=O)=O)CC2)n1-c1ccc(F)cc1 (centres unmarked)	1000 to 10000 nM

Alright, here's another molecule for you.
The molecule COc1ccc(C(C)(C)c2cnc(C(=O)NCc3ccc(Cl)c(F)c3)n2-c2ccc(F)cc2)cc1OC , when measured on human TGR5 (h-TGR5) (Homo sapiens, UniProt Q8TDU6), yielded EC50 of 100 to 1000 nM

###

# measured-target: h-TGR5 (Homo sapiens)
# Construct: expressed in transfected cells
# method-summary: TGR5 cAMP Assay using Cisbio cAMP Dynamic2 htrf kit (hTGR5CRE-luc HEK 293 cells)
# Type: cell-based
# condition-summary: h-TGR5 cAMP EC50, Table 1; read-out: cAMP (EC50)
pEC50: −log10 of the molar value.
Listing: pEC50 of selected compounds

Per the records, this compound ( CC(C)(c1ccc(Cl)c(Cl)c1)c1cnc(SCC2CCN(S(C)(=O)=O)CC2)n1-c1ccc(F)c(Cl)c1 ) has pEC50 equal to 6.00 to 7.00

Per the records, this compound ( CC(C)(c1ccc(S(N)(=O)=O)cc1)c1cnc(SCc2c(F)cccc2Cl)n1-c1ccc(F)cc1 ) has pEC50 equal to 6.00 to 7.00

Per the records, this compound ( COc1cc(C(C)(C)c2cnc(SCc3c(F)cc(OCCCNC(=N)N)cc3Cl)n2-c2ccc(F)cc2)ccc1F ) has pEC50 equal to > 7.00

Per the records, this compound ( CC(C)(c1ccc(Cl)c(Cl)c1)c1cnc(SCc2c(F)cccc2F)n1-c1ccc(F)cc1 ) has pEC50 equal to 6.00 to 7.00

###

# measured-target: human TGR5 (h-TGR5) (Homo sapiens)
# Construct: expressed in transfected cells
# Sequence (Q8TDU6 1-330): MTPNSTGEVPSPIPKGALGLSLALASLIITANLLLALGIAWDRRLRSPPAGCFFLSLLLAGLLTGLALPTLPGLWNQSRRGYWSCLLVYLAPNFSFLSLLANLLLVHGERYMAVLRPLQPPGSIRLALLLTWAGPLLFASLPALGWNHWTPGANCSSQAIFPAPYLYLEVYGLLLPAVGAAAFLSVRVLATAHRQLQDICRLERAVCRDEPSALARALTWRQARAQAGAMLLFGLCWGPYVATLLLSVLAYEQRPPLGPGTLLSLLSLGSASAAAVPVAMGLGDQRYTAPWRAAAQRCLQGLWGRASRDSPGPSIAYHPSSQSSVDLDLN
# method-summary: TGR5/CRE-Luciferiase Assay (HEK 293 hTGR5/CRE-Luc cells)
# Assay type: cell-based
# condition-summary: h-TGR5 CRE-Luc EC50, Table 1; read-out: CRE-Luc (EC50)
pEC50: −log10 of the molar value.
Listing: pEC50 of selected compounds

The examples below pair each entry with its known result.
CC(C)(c1ccc(Cl)c(Cl)c1)c1cnc(SCc2ccc(C(=N)N)c(Cl)c2)n1-c1ccc(F)cc1	5.00 to 6.00
COc1cc(C(C)(C)c2cnc(SCc3c(F)cc(C(=O)NCS(=O)(=O)O)cc3Cl)n2-c2ccc(F)cc2)ccc1Cl	> 7.00
CC(C)(c1ccc(Cl)c(Cl)c1)c1cnc(C2=CCN(S(C)(=O)=O)CC2)n1-c1ccc(F)cc1	5.00 to 6.00

Alright, here's another compound for you.
The compound CC(C)(c1ccc(Cl)c(Cl)c1)c1cnc(SCC2CCN(S(C)(=O)=O)CC2)n1-c1ccc(F)cc1 , when measured on human TGR5 (h-TGR5) (Homo sapiens), yielded pEC50 of > 7.00

###

# measured-target: h-TGR5 (Homo sapiens)
# Construct: expressed in transfected cells
# method-summary: TGR5 cAMP Assay using Cisbio cAMP Dynamic2 htrf kit (hTGR5CRE-luc HEK 293 cells)
# Assay type: cell-based
# condition-summary: h-TGR5 cAMP EC50, Table 1; read-out: cAMP (EC50)
Listing: EC50 of selected compounds

The examples below pair each entry with its known result.
COc1cc(C(C)(C)c2cnc(SCc3c(F)cc(C(=O)O)cc3Cl)n2-c2cccnc2)ccc1Cl	1 to 10 µM
COc1cc(C(C)(C)c2cnc(SCc3c(F)cc(C(=O)NCS(=O)(=O)O)cc3Cl)n2-c2ccc(F)cc2)ccc1Cl	< 0.1 µM
CC(C)(c1ccc(Cl)c(S(N)(=O)=O)c1)c1cnc(SCc2c(F)cc(C(=O)O)cc2Cl)n1-c1ccc(F)cc1	0.1 to 1 µM

Alright, here's another compound for you.
Per the records, this compound ( COc1cc(-n2c(C(C)(C)c3ccc(S(C)(=O)=O)c(Cl)c3)cnc2SCc2ccc(S(=O)(=O)NC(=O)NN3CCCC3)cc2Cl)ccc1F ) has EC50 equal to 0.1 to 1 µM

###

# measured-target: human TGR5 (h-TGR5) (Homo sapiens, UniProt Q8TDU6)
# Construct: expressed in transfected cells
# Sequence (Q8TDU6 1-330): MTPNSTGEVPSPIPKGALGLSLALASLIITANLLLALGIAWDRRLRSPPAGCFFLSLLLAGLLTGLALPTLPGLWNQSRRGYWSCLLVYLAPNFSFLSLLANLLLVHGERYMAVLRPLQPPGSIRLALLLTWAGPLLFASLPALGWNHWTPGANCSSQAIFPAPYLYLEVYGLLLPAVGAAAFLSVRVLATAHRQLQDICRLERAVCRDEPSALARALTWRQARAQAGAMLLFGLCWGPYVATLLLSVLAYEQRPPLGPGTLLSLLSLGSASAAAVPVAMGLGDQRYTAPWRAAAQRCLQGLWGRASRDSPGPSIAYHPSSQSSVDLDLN
# method-summary: TGR5/CRE-Luciferiase Assay (HEK 293 hTGR5/CRE-Luc cells)
# Assay type: cell-based
# condition-summary: h-TGR5 CRE-Luc EC50, Table 1; read-out: CRE-Luc (EC50)
pEC50: −log10 of the molar value.
Listing: pEC50 of selected compounds

The examples below pair each entry with its known result.
CC(C)(c1ccc(Cl)c(Cl)c1)c1cnc(SCC2CCN(S(C)(=O)=O)CC2)n1-c1ccc(F)c(Cl)c1	> 7.00
CC(C)(c1ccc(Cl)c(Cl)c1)c1cnc(SCc2c(F)cccc2Cl)n1-c1ccc(F)cc1Cl	6.00 to 7.00
CC(C)(c1ccc(Cl)c(Cl)c1)c1cnc(SCc2ccc(F)c(OCC(=O)O)c2)n1-c1ccc(F)cc1	6.00 to 7.00

Alright, here's another compound for you.
Per the records, this compound ( CC(C)(c1ccc(Cl)c(Cl)c1)c1cnc(SCc2ccc(C(=O)O)cc2F)n1-c1ccc(F)cc1 ) has pEC50 equal to 6.00 to 7.00

###

Listing: EC50 of selected compounds
# measured-target: human TGR5 (h-TGR5) (Homo sapiens)
# Construct: expressed in transfected cells
# method-summary: TGR5/CRE-Luciferiase Assay (HEK 293 hTGR5/CRE-Luc cells)
# Assay type: cell-based
# condition-summary: h-TGR5 CRE-Luc EC50, Table 1; read-out: CRE-Luc (EC50)

CC(C)(c1ccc(Cl)c(Cl)c1)c1cnc(SCc2ccc(C(=O)NCCN3CCOCC3)cc2F)n1-c1ccc(F)cc1	100 to 1000 nM

The compound CC(C)(c1ccc(Cl)c(Cl)c1)c1cnc(COc2ccc(Cl)c(S(N)(=O)=O)c2)n1-c1ccc(F)cc1 , when measured on human TGR5 (h-TGR5) (Homo sapiens), yielded EC50 of 100 to 1000 nM

The compound CC(C)(c1ccc(Cl)c(Cl)c1)c1cnc(SCc2c(F)cccc2Cl)n1-c1ccc(Cl)cc1Cl , when measured on human TGR5 (h-TGR5) (Homo sapiens), yielded EC50 of 1000 to 10000 nM

The compound CC(C)(c1ccc(Cl)c(Cl)c1)c1cnc(SCc2ccc(F)cc2C(N)=O)n1-c1ccc(F)cc1 , when measured on human TGR5 (h-TGR5) (Homo sapiens), yielded EC50 of 100 to 1000 nM

###

Listing: EC50 of selected compounds
# measured-target: human TGR5 (h-TGR5) (Homo sapiens)
# Construct: expressed in transfected cells
# method-summary: TGR5/CRE-Luciferiase Assay (HEK 293 hTGR5/CRE-Luc cells)
# Type: cell-based
# condition-summary: HEK 293 hTGR5/CRE-Luc cells, 6 hours incubation, luciferase activity; Table 2; read-out: h-TGR5CRE-Luc EC50 (CRE-Luc)

The examples below pair each entry with its known result.
COc1cc(-n2c(SCc3ccc(Cl)c(-c4nnn[nH]4)c3)nnc2C(C)(C)c2ccc(Cl)c(OC)c2)ccc1F	< 0.1 µM
CC(C)(c1ccc2nccnc2c1)c1nnc(SCc2c(F)cccc2Cl)n1-c1ccc(F)cc1	< 0.1 µM
COc1ccc(Cc2nnc(SCc3cccc(C(F)(F)F)c3F)n2-c2ccc(F)cc2)cc1OC	< 0.1 µM
CC(C)(c1ccc2cccnc2c1)c1nnc(SCc2c(F)cc(C(=O)O)cc2F)n1-c1ccc(F)cc1	1 to 10 µM
CC(C)(c1ccc2cccnc2c1)c1nnc(SCc2c(F)cccc2Cl)n1-c1ccc(F)cc1	< 0.1 µM
CS(=O)(=O)c1ccc(Cc2nnc(SCc3ccc(F)cc3Cl)n2-c2ccc(F)cc2)cc1	1 to 10 µM
CC(C)(c1ccc2nccnc2c1)c1nnc(SCc2ccc(Cl)c(-c3nnn[nH]3)c2)n1-c1ccc(F)cc1	1 to 10 µM

Alright, here's another compound for you.
Per the records, this compound ( CC(C)(c1ccc(Cl)c(Cl)c1)c1nnc(SCc2c(F)cc(C(=O)O)cc2F)n1-c1ccc(F)cc1 ) has EC50 equal to 0.1 to 1 µM
